Below is a list of entries, each paired with its recorded pEC50 value.
STUDY_TARGET: FSHR (Homo sapiens)
ASSAY: EC50 of cyclic AMP production in CHO FSHR cells + EC20 FSH (HTRF)
CONDITIONS: Cho-FSHR-LUC-1-1-43 cells, + EC20 FSH (0.265 pM), 200 μM IBMX, 1 h at 37° C.; read-out: EC50 of cAMP production
Keep it numeric: pEC50 is minus log10 of the concentration in mol/L.

[[record]]
compound = "[2H]c1c([2H])c([C@@H]2S[C@H](CC(=O)NC([2H])([2H])C([2H])([2H])c3ccc(OC([2H])([2H])[2H])c(OC([2H])([2H])[2H])c3)C(=O)N2c2cccc(C(N)=O)c2)c([2H])c([2H])c1C#Cc1ccccc1"
study_target = "FSHR (Homo sapiens)"
measured = 9.05

[[record]]
compound = "[2H]c1c([2H])c([2H])c(C#Cc2ccc([C@@H]3S[C@H](CC(=O)NC([2H])([2H])C([2H])([2H])c4ccc(O)c(OC)c4)C(=O)N3c3cccc(C(N)=O)c3)cc2)c([2H])c1[2H] (single isomer, unassigned)"
study_target = "FSHR (Homo sapiens)"
measured = 6.47

[[record]]
compound = "[2H]C([2H])(NC(=O)C[C@H]1S[C@@H](c2ccc(C#Cc3ccccc3)cc2)N(c2cccc(C(N)=O)c2)C1=O)C([2H])([2H])c1ccc(O)c(OC)c1 (single isomer, unassigned)"
study_target = "FSHR (Homo sapiens)"
measured = 9.06


Data request: Consider the compound [2H]C([2H])(NC(=O)C[C@H]1S[C@@H](c2ccc(C#Cc3ccccc3)cc2)N(c2cccc(C(N)=O)c2)C1=O)C([2H])([2H])c1ccc(OC)c(OCC)c1 (single isomer, unassigned) [Compound 4] and give its measured pEC50.
Data returned: 9.15

Data request: Consider the compound [2H]c1c([2H])c([2H])c(C#Cc2c([2H])c([2H])c([C@H]3N(c4cccc(C(N)=O)c4)C(=O)[C@@H](CC(=O)NC([2H])([2H])C([2H])([2H])c4ccc(OC([2H])([2H])[2H])c(OC([2H])([2H])[2H])c4)[S@@+]3[O-])c([2H])c2[2H])c([2H])c1[2H] (single isomer, unassigned) and give its measured pEC50.
Data returned: 6.95

Data request: Consider the compound [2H]C([2H])([2H])Oc1ccc(CCNC(=O)C[C@H]2S[C@@H](c3ccc(C#Cc4ccccc4)cc3)N(c3cccc(C(N)=O)c3)C2=O)cc1OCC (single isomer, unassigned) and give its measured pEC50.
Data returned: 9.15

Data request: Consider the compound [2H]c1c([2H])c([C@@H]2S[C@H](CC(=O)NC([2H])([2H])C([2H])([2H])c3ccc(OC([2H])([2H])[2H])c(OCC)c3)C(=O)N2c2cccc(C(N)=O)c2)c([2H])c([2H])c1C#Cc1ccccc1 (single isomer, unassigned) and give its measured pEC50.
Data returned: 9.15

Data request: Consider the compound [2H]c1c([2H])c([2H])c(C#Cc2ccc([C@@H]3S[C@H](CC(=O)NC([2H])([2H])C([2H])([2H])c4ccc(OC([2H])([2H])[2H])c(OCC)c4)C(=O)N3c3cccc(C(N)=O)c3)cc2)c([2H])c1[2H] (single isomer, unassigned) and give its measured pEC50.
Data returned: 9.52

Data request: Consider the compound CCOc1cc(CCNC(=O)C[C@H]2S[C@@H](c3ccc(C#Cc4ccccc4)cc3)N(c3cccc(C(N)=O)c3)C2=O)ccc1OC [Reference compound, reference compound] and give its measured pEC50.
Data returned: 9.52

Data request: Consider the compound [2H]C([2H])([2H])Oc1ccc(C([2H])([2H])C([2H])([2H])NC(=O)C[C@H]2S[C@@H](c3ccc(C#Cc4ccccc4)cc3)N(c3cccc(C(N)=O)c3)C2=O)cc1OC and give its measured pEC50.
Data returned: 8.77

###

STUDY_TARGET: FSHR (Homo sapiens)
Construct: expressed in transfected cells; host or cells: CHO (Cho-FSHR-LUC-1-1-43)
Sequence (P23945 18-695): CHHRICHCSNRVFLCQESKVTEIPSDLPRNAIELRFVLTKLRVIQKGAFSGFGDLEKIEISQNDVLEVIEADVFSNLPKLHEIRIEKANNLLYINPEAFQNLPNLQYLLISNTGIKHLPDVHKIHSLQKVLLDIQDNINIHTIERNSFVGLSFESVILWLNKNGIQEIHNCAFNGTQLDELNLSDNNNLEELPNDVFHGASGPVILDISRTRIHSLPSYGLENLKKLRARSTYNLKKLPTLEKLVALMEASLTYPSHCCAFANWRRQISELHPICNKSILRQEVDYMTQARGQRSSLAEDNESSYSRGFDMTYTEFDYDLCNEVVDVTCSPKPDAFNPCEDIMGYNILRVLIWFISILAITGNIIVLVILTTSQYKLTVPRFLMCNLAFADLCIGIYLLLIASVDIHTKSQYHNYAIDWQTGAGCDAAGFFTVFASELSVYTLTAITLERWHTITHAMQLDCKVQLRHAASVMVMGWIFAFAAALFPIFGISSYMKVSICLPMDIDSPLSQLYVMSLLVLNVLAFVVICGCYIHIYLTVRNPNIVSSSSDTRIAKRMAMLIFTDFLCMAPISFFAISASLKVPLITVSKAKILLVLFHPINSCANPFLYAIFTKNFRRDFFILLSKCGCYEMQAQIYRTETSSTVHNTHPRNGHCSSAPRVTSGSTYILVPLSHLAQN
ASSAY: EC50 of cyclic AMP production in CHO FSHR cells + EC20 FSH (HTRF)
Type: cell-based
CONDITIONS: 1 h; Cho-FSHR-LUC-1-1-43 cells, + EC20 FSH; % effect in brackets; read-out: EC50 of cAMP production (% effect)
Below is a list of entries, each paired with its recorded Emax value.

[[record]]
compound = "[2H]c1c([2H])c([2H])c(C#Cc2c([2H])c([2H])c([C@H]3N(c4cccc(C(N)=O)c4)C(=O)[C@@H](CC(=O)NC([2H])([2H])C([2H])([2H])c4ccc(OC([2H])([2H])[2H])c(OC([2H])([2H])[2H])c4)[S@@+]3[O-])c([2H])c2[2H])c([2H])c1[2H] (single isomer, unassigned)"
measure = "Emax"
measured = "103%"


Data request: I'm curious: which Emax was measured for [2H]c1c([2H])c([2H])c(C#Cc2ccc([C@@H]3S[C@H](CC(=O)NCCc4ccc(O)c(O)c4)C(=O)N3c3cccc(C(N)=O)c3)cc2)c([2H])c1[2H] tested on FSHR (Homo sapiens)?
Data returned: 99%

Data request: I'm curious: which Emax was measured for [2H]C([2H])([2H])Oc1ccc(C([2H])([2H])C([2H])([2H])NC(=O)C[C@H]2S[C@@H](c3ccc(C#Cc4ccccc4)cc3)N(c3cccc(C(N)=O)c3)C2=O)cc1OCC (single isomer, unassigned) tested on FSHR (Homo sapiens)?
Data returned: 99%

###

STUDY_TARGET: FSHR (Homo sapiens)
Construct: expressed in transfected cells; host or cells: CHO (Cho-FSHR-LUC-1-1-43)
ASSAY: EC50 of cyclic AMP production in CHO FSHR cells + EC20 FSH (HTRF)
Type: cell-based
CONDITIONS: 1 h; Cho-FSHR-LUC-1-1-43 cells, + EC20 FSH; % effect in brackets; read-out: EC50 of cAMP production (% effect)
Below is a list of entries, each paired with its recorded Emax value.
I only need the number, in %, no unit after it.

Past entries and their recorded results:
[[record]]
compound = "[2H]c1c([2H])c([2H])c(C#Cc2ccc([C@@H]3S[C@H](CC(=O)NC([2H])([2H])C([2H])([2H])c4ccc(OC([2H])([2H])[2H])c(OCC)c4)C(=O)N3c3cccc(C(N)=O)c3)cc2)c([2H])c1[2H] (single isomer, unassigned) [Compound 10]"
measure = "Emax"
measured = 98

[[record]]
compound = "CCOc1cc(CCNC(=O)C[C@H]2S[C@@H](c3ccc(C#Cc4ccccc4)cc3)N(c3cccc(C(N)=O)c3)C2=O)ccc1OC [Reference compound, reference compound]"
measure = "Emax"
measured = 98

[[record]]
compound = "[2H]c1c([2H])c([2H])c(C#Cc2ccc([C@@H]3S[C@H](CC(=O)NC([2H])([2H])C([2H])([2H])c4ccc(OC([2H])([2H])[2H])c(OC)c4)C(=O)N3c3cccc(C(N)=O)c3)cc2)c([2H])c1[2H] [Compound 13]"
measure = "Emax"
measured = 97

[[record]]
compound = "[2H]C([2H])(NC(=O)C[C@H]1S[C@@H](c2ccc(C#Cc3ccccc3)cc2)N(c2cccc(C(N)=O)c2)C1=O)C([2H])([2H])c1ccc(OC)c(OC)c1 [Compound 2]"
measure = "Emax"
measured = 97

[[record]]
compound = "[2H]C([2H])([2H])Oc1ccc(CCNC(=O)C[C@H]2S[C@@H](c3ccc(C#Cc4ccccc4)cc3)N(c3cccc(C(N)=O)c3)C2=O)cc1OCC (single isomer, unassigned) [Compound 6]"
measure = "Emax"
measured = 96


Data request: Consider the compound [2H]c1c([2H])c([C@@H]2S[C@H](CC(=O)NC([2H])([2H])C([2H])([2H])c3ccc(OC([2H])([2H])[2H])c(OCC)c3)C(=O)N2c2cccc(C(N)=O)c2)c([2H])c([2H])c1C#Cc1ccccc1 (single isomer, unassigned) [Compound 16] and give its measured Emax.
Data returned: 100

Data request: Consider the compound [2H]C([2H])(NC(=O)C[C@H]1S[C@@H](c2ccc(C#Cc3ccccc3)cc2)N(c2cccc(C(N)=O)c2)C1=O)C([2H])([2H])c1ccc(O)c(OC)c1 (single isomer, unassigned) [Compound 1] and give its measured Emax.
Data returned: 99

Data request: Consider the compound [2H]c1c([2H])c([2H])c(C#Cc2ccc([C@@H]3S[C@H](CC(=O)NC([2H])([2H])C([2H])([2H])c4ccc(O)c(OC)c4)C(=O)N3c3cccc(C(N)=O)c3)cc2)c([2H])c1[2H] (single isomer, unassigned) [Compound 11] and give its measured Emax.
Data returned: 99

Data request: Consider the compound [2H]C([2H])(NC(=O)C[C@H]1S[C@@H](c2ccc(C#Cc3ccccc3)cc2)N(c2cccc(C(N)=O)c2)C1=O)C([2H])([2H])c1ccc(OC)c(OCC)c1 (single isomer, unassigned) [Compound 4] and give its measured Emax.
Data returned: 99
